Provenance of the data: patent US20250051467A1

MEASURED_TARGET: T1, mouse FAP on CHOK1 cells (mouse, UniProt P97321 1-761)
T1 construct: whole, on cells; also called cell surface mouse FAP
T1 sequence (P97321 whole entry): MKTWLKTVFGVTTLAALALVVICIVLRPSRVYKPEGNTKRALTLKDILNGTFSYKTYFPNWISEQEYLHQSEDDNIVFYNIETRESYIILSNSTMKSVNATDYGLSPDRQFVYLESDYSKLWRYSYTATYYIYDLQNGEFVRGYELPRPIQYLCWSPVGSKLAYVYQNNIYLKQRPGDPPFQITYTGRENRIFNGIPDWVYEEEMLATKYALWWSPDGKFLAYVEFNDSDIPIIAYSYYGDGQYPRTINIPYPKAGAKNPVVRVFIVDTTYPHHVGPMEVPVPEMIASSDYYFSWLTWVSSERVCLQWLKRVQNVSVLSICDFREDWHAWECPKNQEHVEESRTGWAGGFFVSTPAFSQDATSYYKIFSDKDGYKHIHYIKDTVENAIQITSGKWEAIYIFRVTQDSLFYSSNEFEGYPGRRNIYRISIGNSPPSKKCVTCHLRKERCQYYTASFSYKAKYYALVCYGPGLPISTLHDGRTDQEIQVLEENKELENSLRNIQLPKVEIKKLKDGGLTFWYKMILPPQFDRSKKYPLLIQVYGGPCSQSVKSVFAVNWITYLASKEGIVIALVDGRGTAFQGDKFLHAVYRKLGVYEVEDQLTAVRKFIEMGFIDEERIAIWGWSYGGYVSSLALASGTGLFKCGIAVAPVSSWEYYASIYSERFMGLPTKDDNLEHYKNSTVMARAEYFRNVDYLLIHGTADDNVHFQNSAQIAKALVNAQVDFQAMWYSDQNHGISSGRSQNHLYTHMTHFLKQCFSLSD
PROTOCOL_SUMMARY: FACS, percent of marked cells overexpressing mouse FAP, anti-hIgG Alexa Fluor-647 secondary antibody
Method: A FACS assay was used to measure the binding properties of anti-FAP antibodies on cells. The assay comprises the following steps: A CHO cell line overexpressing human FAP was constructed and plated (1E5/well). The test antibodies were added at 100 μL/well. The highest concentration was 100 nM. A 5-fold dilution was performed, yielding 8 concentrations in total. The plate was incubated at 4° C. for 1 h. Anti-hIgG Alexa Fluor-647 was added as a secondary antibody in the ratio of 1:500. […]
MEASURED_PARAMETER: EC50 (read off the curve)

Examples from the recorded data:
INSERT INTO assay_data (binder, value_reported) VALUES
  ('Ab9 (antibody, human IgG1, kappa, L234A L235A, V domains shown, Fully human, IgG1 / kappa; also called anti-FAP antibody Ab9) VH: QMQLVQSGAEVKKPGASVTVSCRASGYSFADHFIHWVRQAPGQGFQWMGWINPNRGVTHHAQDFQGRVAMTRDMSTDTVYMELTSLRSDDTAVYYCARDESLTARPYYFYGFDVWGQGTLVTVSS VL: DIQMTQSPSSVSASVGDRVTITCRASQGISSWLAWYQQKPGKAPKLLIYAASSLQSGVPSRFSGSGSGTDFTLTISSLQPEDFATYYCQQANSFPPAFGQGTKVEIKR', '~5 ng/mL'),
  ('28H1 (antibody, V domains shown, also called control anti-FAP antibody 28H1) VH: EVQLLESGGGLVQPGGSLRLSCAASGFTFSSHAMSWVRQAPGKGLEWVSAIWASGEQYYADSVKGRFTISRDNSKNTLYLQMNSLRAEDTAVYYCAKGWLGNFDYWGQGTLVTVSS VL: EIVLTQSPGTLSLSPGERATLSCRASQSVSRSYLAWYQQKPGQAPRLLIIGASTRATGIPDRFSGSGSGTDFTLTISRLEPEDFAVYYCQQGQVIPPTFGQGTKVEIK', '~1 ng/mL'),
  ('Ab15 (antibody, human IgG1, kappa, L234A L235A, V domains shown, Fully human, IgG1 / kappa; also called anti-FAP antibody Ab15) VH: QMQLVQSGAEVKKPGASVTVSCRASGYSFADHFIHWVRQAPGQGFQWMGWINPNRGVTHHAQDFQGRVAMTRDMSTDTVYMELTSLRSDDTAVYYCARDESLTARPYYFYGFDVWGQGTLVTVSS VL: EIVLTQSPSSVSASVGDRVTITCRASQGISSWLAWYQQKPGKAPKSLIYAASSLQSGVPSRFSGSGSGTDFTLTISSLQPEDFATYYCQQANSFPPTFGGGTKVEIKR', '~8 ng/mL');

# input for lookup
Input: // query EC50 (read off the curve) value for entry Ab10 (antibody, human IgG1, kappa, L234A L235A, V domains shown, Fully human, IgG1 / kappa; also called anti-FAP antibody Ab10; Ab110) VH: QVQLQQSGVEVKKPGASVTVSCRASGYSFADHFIHWVRQAPGQGFQWMGWINPNRGVTHHAQDFQGRVAMTRDMSTDTVYMELTSLRSDDTAVYYCARDASLTARPYYFYGFDVWGQGTLVTVSS VL: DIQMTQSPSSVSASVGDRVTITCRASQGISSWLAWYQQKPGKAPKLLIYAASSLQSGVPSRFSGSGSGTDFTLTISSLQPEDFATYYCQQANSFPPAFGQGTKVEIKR
Output: ~2 ng/mL
